measured quantity: melting point

> print(dat)
                                   molecule  measured.quantity       measured
1  O=C(NC(Cc1ccc(C(F)(F)F)cc1)C(O)c1ccc(F)cc1)c1cccc2ccccc12 (racemic)      melting point  159 to 181 °C
2  O=C(N[C@H](Cc1ccc(F)cc1)[C@@H](O)c1ccc(C(F)(F)F)cc1)C1CCCCC1 (racemic)      melting point  220 to 221 °C
3  O=C(N[C@H](Cc1cccc(OC(F)(F)C(F)F)c1)[C@@H](O)c1ccc(F)cc1)c1cccc2c1C=CCCC2 (racemic)      melting point  176 to 177 °C
4  O=Cc1ccc([C@H](O)[C@@H](Cc2cccc(OC(F)(F)C(F)F)c2)NC(=O)c2cccc3c2C=CCCC3)cc1 (racemic)      melting point  164 to 166 °C
5  O=C(N[C@H](Cc1ccc(C(F)(F)F)cc1)[C@@H](O)c1ccc(F)cc1)c1ccc(Br)c2ccccc12 (racemic)      melting point  229 to 231 °C

Look at each molecule and report its melting point.
1. Cc1cc(C[C@@H](NC(=O)c2ccc(F)c3ccccc23)[C@@H](O)c2ccc(F)cc2)cc(OC(F)(F)C(F)F)c1 (racemic)
2. CC(C)(C)OC(=O)N[C@H](Cc1cccc(OC(F)(F)C(F)F)c1)[C@@H](O)c1csc(-c2ccccc2)n1 (racemic)
3. O=C(N[C@H](Cc1ccc(C(F)(F)F)cc1)[C@@H](O)c1ccc(F)cc1)c1ccc(CCc2ccc(Cl)cc2)cc1 (racemic)
4. O=C(N[C@H](Cc1ccc(C(F)(F)F)cc1)[C@@H](O)c1ccc(F)cc1)c1cccc2cccnc12 (racemic)

1. 189 to 190 °C
2. 127 to 128 °C
3. 211 to 212 °C
4. 83 to 84 °C

====

Task for the reader: assign each of the following molecules its reported melting point.
Counter-ions that a name gives are not always drawn.

Use the examples below as a reference point.
molecule	measured quantity	measured
O=C(N[C@H](Cc1cccc(OC(F)(F)C(F)F)c1)[C@@H](O)c1ccc(F)cc1)c1cccc2c1CCCCC2 (racemic)	melting point	194 to 195 °C
CC(C)(C)OC(=O)NCC(=O)O[C@H](c1ccc(F)cc1)[C@H](Cc1cccc(OC(F)(F)C(F)F)c1)NC(=O)c1ccc(F)c2ccccc12 (racemic)	melting point	126 to 127 °C
O=C(N[C@H](Cc1ccc(C(F)(F)F)cc1)[C@@H](O)c1cccc2ccccc12)c1ccc2ccccc2c1 (racemic)	melting point	251 to 252 °C
COc1cccc([C@H](O)[C@@H](Cc2cccc(OC(F)(F)C(F)F)c2)NC(=O)c2cccc3c2C=CCCC3)c1 (racemic)	melting point	155 to 156 °C
O=C(N[C@H](Cc1ccccc1C(F)(F)F)[C@@H](O)c1ccc(F)cc1)c1cccc2ccccc12 (racemic)	melting point	193 to 194 °C
O=C1CC(C(=O)N[C@H](Cc2ccc(C(F)(F)F)cc2)[C@@H](O)c2ccc(F)cc2)c2ccccc21 (mixture of isomers)	melting point	237 to 238 °C
O=C(Nc1ccccc1)c1ccc([C@H](O)[C@@H](Cc2cccc(OC(F)(F)C(F)F)c2)NC(=O)c2cccc3c2C=CCCC3)cc1 (racemic)	melting point	205 to 206 °C
Cc1ccc(C(=O)N[C@H](Cc2ccc(C(F)(F)F)cc2)[C@@H](O)c2ccc(F)cc2)c2ccccc12 (racemic)	melting point	198 to 199 °C
CCc1cc(Oc2ccc([C@H](O)[C@@H](Cc3cccc(OC(F)(F)C(F)F)c3)NC(=O)c3cccc4c3C=CCCC4)cc2)ccc1Cl (racemic)	melting point	116 to 117 °C
O=C(N[C@H](Cc1cccc(OC(F)(F)C(F)F)c1)[C@@H](O)c1ccc(Oc2ccccn2)cc1)c1cccc2c1C=CCCC2 (racemic)	melting point	160 to 161 °C

Look at each molecule and report its melting point.
1. O=C(N[C@H](Cc1cccc(OC(F)(F)C(F)F)c1)[C@@H](O)c1ccc(Cl)nc1)c1ccc(F)c2ccccc12 (racemic)
2. O=C(CCc1ccccc1)N[C@H](Cc1ccc(C(F)(F)F)c(F)c1)[C@@H](O)c1ccc(F)cc1 (racemic)
3. O=C(NC(Cc1ccc(C(F)(F)F)cc1)C(O)c1ccc(F)cc1)c1ccc(F)cc1 (racemic)
4. CC(C)(C)Cc1ccc(C[C@@H](NC(=O)c2ccc(F)c3ccccc23)[C@@H](O)c2cccc(Cl)c2)cc1 (racemic)
5. CC(C)(C)Oc1ccc(C[C@@H](NC(=O)c2ccc(F)c3ccccc23)[C@@H](O)c2cccc(Cl)c2)cc1 (racemic)
6. Cc1ccc(C(=O)N[C@H](Cc2cccc(OC(F)(F)C(F)F)c2)[C@@H](O)c2ccc(F)cc2)c2c1CCCC=C2 (racemic)

1: 185 to 187 °C; 2: 126 to 127 °C; 3: 155 to 179 °C; 4: 150 to 151 °C; 5: 161 to 162 °C; 6: 177 to 178 °C

Look at each molecule and report its melting point.
1. O=C(O)CCC(=O)O[C@H](c1ccc(F)cc1)[C@H](Cc1ccc2c(c1)OC(F)(F)C(F)(F)O2)NC(=O)c1ccc(F)c2ccccc12 (racemic) (as salt: succinate)
2. O=C(CCc1ccccc1)N[C@H](Cc1ccc(C(F)(F)F)cc1)[C@@H](O)c1ccccc1 (racemic)
3. O=C(NC(Cc1ccc(C(F)(F)F)cc1)C(O)c1ccc(F)cc1)c1cccnc1 (racemic)
4. CC(=O)OCCOc1ccc([C@@H](O)[C@H](Cc2cccc(OC(F)(F)C(F)F)c2)NC(=O)c2cccc3c2C=CCCC3)cc1 (racemic)
5. O=C(N[C@H](Cc1ccc2c(c1)OC(F)(F)O2)[C@@H](O)c1ccc(F)cc1)c1ccc(F)c2ccccc12 (racemic)

1. 196 to 197 °C
2. 147 to 148 °C
3. 160 to 165 °C
4. 125 to 126 °C
5. 219 to 220 °C

Look at each molecule and report its melting point.
1. C=C(c1cccc(C[C@@H](NC(=O)c2ccc(F)c3ccccc23)[C@@H](O)c2ccc(F)cc2)c1)C(F)(F)C(F)F (racemic)
2. O=C(CCCCc1ccccc1)N[C@H](Cc1ccc(C(F)(F)F)cc1)[C@@H](O)c1ccc(F)cc1 (racemic)
3. O=C(N[C@H](Cc1ccc(C(F)(F)F)cc1)[C@@H](O)c1ccc(F)cc1)c1cc(C(F)(F)F)cc(C(F)(F)F)c1 (racemic)
4. O=C(N[C@H](Cc1cccc(OC(F)(F)C(F)F)n1)[C@@H](O)c1ccc(F)cc1)c1cccc2c1C=CCCC2 (racemic)

1: 162 to 163 °C; 2: 152 to 153 °C; 3: 150 to 151 °C; 4: 134 to 135 °C
